These measurements were taken from patent US8436019B2.

measured-target: GlyT1 (Homo sapiens)
Construct: Human placental choriocarcinoma cells endogenously expressing GlyT1; endogenous in cells; host or cells: JAR cells (human placental choriocarcinoma)
test-method-notes: [14C]-glycine uptake inhibition in JAR cells (human placental choriocarcinoma cells endogenously expressing GlyT1)
Format: cell-based
assay-conditions: inhibition of specific [14C]-glycine uptake; values given in μM; read-out: Potency
quantity-kind: IC50 (µM)
Hi! Could you send only the number? It should be in µM, unit omitted.

Completed entries (count: 3):
Cn1cc(S(=O)(=O)N2CCC(C(NC(=O)c3ccc(Cl)cc3Cl)c3ccccc3)CC2)cn1 (centres unmarked) ... 2.4
CCCS(=O)(=O)N1CCC(C(NC(=O)c2ccc(Cl)cc2Cl)c2ccccc2)CC1 (racemic) [Compound 3a] ... 1.5
Cn1cnc(S(=O)(=O)N2CCC(C(NC(=O)c3ccc(Cl)cc3Cl)c3ccccn3)CC2)c1 (single isomer, unassigned) ... 1.6

Could you now consider this next compound?
Look up IC50 of Cn1cnc(S(=O)(=O)N2CCC(C(NC(=O)c3ccccc3C(F)(F)F)c3ccccn3)CC2)c1 (centres unmarked) and report it. 1.6

====

Measured IC50, listed per entry for reference.
measured-target: GlyT1 (Homo sapiens, UniProt P48067)
Construct: Human placental choriocarcinoma cells endogenously expressing GlyT1; endogenous in cells; host or cells: JAR cells (human placental choriocarcinoma)
Sequence (P48067 whole entry): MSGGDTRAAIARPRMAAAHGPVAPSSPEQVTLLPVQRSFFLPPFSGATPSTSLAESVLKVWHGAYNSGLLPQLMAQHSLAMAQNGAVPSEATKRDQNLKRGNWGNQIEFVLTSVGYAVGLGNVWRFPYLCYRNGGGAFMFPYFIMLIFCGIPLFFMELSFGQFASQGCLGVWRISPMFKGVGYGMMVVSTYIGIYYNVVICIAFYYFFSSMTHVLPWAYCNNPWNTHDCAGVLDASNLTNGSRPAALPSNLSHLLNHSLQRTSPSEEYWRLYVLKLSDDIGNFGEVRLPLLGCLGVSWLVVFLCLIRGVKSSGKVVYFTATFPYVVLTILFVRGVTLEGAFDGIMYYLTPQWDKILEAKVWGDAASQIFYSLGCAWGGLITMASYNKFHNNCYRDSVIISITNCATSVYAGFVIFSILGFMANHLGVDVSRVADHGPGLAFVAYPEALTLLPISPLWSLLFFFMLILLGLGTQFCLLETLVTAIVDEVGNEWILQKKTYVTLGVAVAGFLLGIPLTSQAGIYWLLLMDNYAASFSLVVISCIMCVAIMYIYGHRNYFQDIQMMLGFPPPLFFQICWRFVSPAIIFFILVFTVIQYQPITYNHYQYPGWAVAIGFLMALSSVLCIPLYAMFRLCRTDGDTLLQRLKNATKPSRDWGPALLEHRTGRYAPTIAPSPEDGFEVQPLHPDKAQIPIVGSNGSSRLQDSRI
test-method-notes: [14C]-glycine uptake inhibition in JAR cells (human placental choriocarcinoma cells endogenously expressing GlyT1)
Type: cell-based
assay-conditions: inhibition of specific [14C]-glycine uptake; values in nM; read-out: Potency
Hi! Could you send only the number? It should be in nM, unit omitted.

Completed entries (count: 5):
CCCS(=O)(=O)N1CCC(C(NC(=O)c2ccc(Cl)cc2Cl)c2ccccc2)CC1 (single isomer, unassigned) ... 609
Cn1cnc(S(=O)(=O)N2CCC(C(NC(=O)c3ccc(Cl)cc3Cl)c3ccccn3)CC2)c1 (racemic) [Compound 8a] ... 46
Cn1cnc(S(=O)(=O)N2CCC(C(NC(=O)c3ccc(F)cc3F)c3ccccn3)CC2)c1 (stereo not drawn) ... 853
Cn1cnc(S(=O)(=O)N2CCC(C(NC(=O)c3ccc(Cl)cc3Cl)c3ccccc3)CC2)c1 (racemic) [Compound 3b] ... 201
Cn1cnc(S(=O)(=O)N2CCC(C(NC(=O)c3ccc(Cl)cc3Cl)c3ccccn3)CC2)c1 (single isomer, unassigned) [Compound 8a-1] ... 90

Look up IC50 of Cn1cnc(S(=O)(=O)N2CCC(C(NC(=O)c3ccc(Cl)cc3Cl)c3ccccc3)CC2)c1 (single isomer, unassigned) [Compound 3b-2] and report it. 178

Look up IC50 of CC(NC(=O)c1ccc(Cl)cc1Cl)C1CCN(S(=O)(=O)c2cn(C)cn2)CC1 (stereo not drawn) and report it. 530

Look up IC50 of Cn1cnc(S(=O)(=O)N2CCC(C(NC(=O)c3ccc(Cl)cc3)c3ccccn3)CC2)c1 (stereo not drawn) and report it. 718

Look up IC50 of Cn1cnc(S(=O)(=O)N2CCC(CNC(=O)c3ccc(Cl)cc3Cl)CC2)c1 and report it. 174
